# Format: physicochemical
Numbered stars: 1 amine (or outer) side, 2 acyl side, 3 side chain; on linkers, the order of the positions; unused ones are H or OH. Square brackets hold non-standard residues; d marks the D form. Side chains are listed from the residue outwards. Peptide text beside a SMILES is read from it. * marks the point of attachment. X2 = O=C(O)CC[C@H](NC(=O)N[C@@H](CCC(=O)N[C@H](CCCN*)C(=O)O)C(=O)O)C(=O)O; X1 = O=C(O)CC[C@H](NC(=O)N[C@@H](CCCCNC(=O)CCCCCCC(=O)*)C(=O)O)C(=O)O; DOTAGA = O=C(O)CN1CCN(CC(=O)O)CCN(C(CCC(=O)*)C(=O)O)CCN(CC(=O)O)CC1; dPhe(4-NH2) = Nc1ccc(C[C@@H](N)C(=O)O)cc1; dTyr(3-I) = N[C@H](Cc1ccc(O)c(I)c1)C(=O)O; Phe(4-NH2) = Nc1ccc(C[C@H](N)C(=O)O)cc1; d2Nal = N[C@H](Cc1ccc2ccccc2c1)C(=O)O; Suc = O=C(CCC(=O)[*:2])[*:1]
Please go through the items and note down their logP.
Answers are plain numbers.

A selection of reference data follows.
Nc1ccc(C[C@H](NC(=O)CCC(C(=O)O)N2CCN(CC(=O)O)CCN(CC(=O)O)CCN(CC(=O)O)CC2)C(=O)N[C@H](Cc2ccc(O)cc2)C(=O)N[C@H](Cc2ccc3ccccc3c2)C(=O)N[C@H](CCCCNC(=O)CCC(=O)NCCC[C@@H](NC(=O)CC[C@H](NC(=O)N[C@@H](CCC(=O)O)C(=O)O)C(=O)O)C(=O)O)C(=O)O)cc1 (stereo partly drawn) [[^nat/177Lu]PSMA-9, metal not drawn] ({DOTAGA}-[Phe(4-NH2)][dY][d2Nal][dK]([Suc-X2])-OH) = -4.01
Nc1ccc(C[C@@H](NC(=O)CCC(C(=O)O)N2CCN(CC(=O)O)CCN(CC(=O)O)CCN(CC(=O)O)CC2)C(=O)N[C@H](Cc2ccc(O)c(I)c2)C(=O)N[C@H](Cc2ccccc2)C(=O)N[C@H](CCCCNC(=O)CCCCCCC(=O)NCCCC[C@H](NC(=O)N[C@@H](CCC(=O)O)C(=O)O)C(=O)O)C(=O)O)cc1 (stereo partly drawn) [[^nat/177Lu]PSMA-2, DOTAGA-(4-NH2)f-(l-y)-f-k-KuE, metal not drawn] ({DOTAGA}-[dPhe(4-NH2)][dTyr(3-I)][dF][dK](X1)-OH) = -4.11
Nc1ccc(C[C@@H](NC(=O)CCC(C(=O)O)N2CCN(CC(=O)O)CCN(CC(=O)O)CCN(CC(=O)O)CC2)C(=O)N[C@H](Cc2ccc(O)cc2)C(=O)N[C@H](Cc2ccc3ccccc3c2)C(=O)N[C@H](CCCCNC(=O)CCCCCCC(=O)NCCCC[C@H](NC(=O)N[C@@H](CCC(=O)O)C(=O)O)C(=O)O)C(=O)O)cc1 (stereo partly drawn) [[^nat/177Lu]PSMA-5, DOTAGA-(4-NH2)f-y-nal-k-KuE, metal not drawn] ({DOTAGA}-[dPhe(4-NH2)][dY][d2Nal][dK](X1)-OH) = -4.11

Hi there! I need logP for each item below, if you can.
1. O=C(O)CC[C@H](NC(=O)N[C@@H](CCCCNC(=O)[C@@H](Cc1ccc(I)cc1)NC(=O)CCCC(=O)NCCCC[C@@H](NC(=O)[C@@H](Cc1ccc2ccccc2c1)NC(=O)[C@@H](Cc1ccc(O)cc1)NC(=O)CCC(C(=O)O)N1CCN(CC(=O)O)CCN(CC(=O)O)CCN(CC(=O)O)CC1)C(=O)O)C(=O)O)C(=O)O (stereo partly drawn) [[^nat/177Lu]PSMA-10, DOTAGA-y-nal-k(Glut-(l-f)-KuE), metal not drawn, reference compound]
2. O=C(O)CC[C@H](NC(=O)N[C@@H](CCCCNC(=O)CCCCCCC(=O)NCCCC[C@@H](NC(=O)[C@@H](Cc1ccccc1)NC(=O)[C@@H](Cc1ccc(O)c(I)c1)NC(=O)CCC(C(=O)O)N1CCN(CC(=O)O)CCN(CC(=O)O)CCN(CC(=O)O)CC1)C(=O)O)C(=O)O)C(=O)O (stereo partly drawn) [[^nat/177Lu]PSMA-1, DOTAGA-(l-y)-f-k-KuE, metal not drawn, reference compound]

RESULT:
-3.05
-4.12
